biological target: substance P receptor from rat forebrain (Rattus norvegicus, UniProt P14600); construct: The receptor was prepared from the brain of Wistar rats (male, 8 weeks old, Charles-River); from tissue; host or cells: forebrain membranes of male Wistar rats; test: Radioligand receptor binding inhibitory assay using receptor from rat forebrain (125I-BHSP); design: species or system rat (Wistar); details: 25° C., 30 minutes, pH 7.4
Sequence (P14600 whole entry): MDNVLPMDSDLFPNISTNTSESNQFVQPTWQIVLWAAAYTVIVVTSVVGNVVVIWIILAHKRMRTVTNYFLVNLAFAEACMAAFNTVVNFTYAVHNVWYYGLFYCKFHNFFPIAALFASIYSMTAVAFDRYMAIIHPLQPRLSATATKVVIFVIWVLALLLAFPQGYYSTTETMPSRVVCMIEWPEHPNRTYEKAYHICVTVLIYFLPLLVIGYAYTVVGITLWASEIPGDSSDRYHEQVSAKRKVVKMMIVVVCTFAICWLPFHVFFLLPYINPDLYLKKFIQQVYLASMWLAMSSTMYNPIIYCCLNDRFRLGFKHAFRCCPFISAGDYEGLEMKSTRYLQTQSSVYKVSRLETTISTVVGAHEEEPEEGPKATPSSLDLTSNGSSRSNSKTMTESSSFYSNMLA
Reported property: IC50 (nM)

Look over these answered cases.
>>> reading("Cc1cc2c(-c3ccccc3)c(NC(=O)NCc3ccccc3C)n(C)c(=O)c2cc1C [Example 18]")
14
>>> reading("CCn1c(NC(=O)NCc2ccccc2)c(-c2ccccc2)c2cc(C)c(C)cc2c1=O [Example 19]")
32
>>> reading("Cc1cc2c(-c3ccccc3)c(NC(=O)NCc3cccs3)n(C)c(=O)c2cc1C [Example 14]")
56

A: Cc1ccc(CNC(=O)Nc2c(-c3ccccc3)c3cc(C)c(C)cc3c(=O)n2C)cc1 [Example 16]
B: Cc1cc2c(-c3ccccc3)c(NC(=O)NCc3ccccc3)n(C)c(=O)c2cc1C [Example 2]
C: COc1ccccc1-c1c(NC(=O)NCc2ccccc2)n(C)c(=O)c2ccccc12 [Example 24]
*Q* Arrange these 3 compounds in increasing order of IC50. Answer by listing the labels in the requested order.
*A* A, B, C
(A: 11 nM, B: 19 nM, C: 100 nM)

----------
molecular target: substance P receptor from human lymphoblast cells (IM-9) (Homo sapiens); construct: The receptor was prepared from human lymphoblast cells (IM-9); endogenous in cells; host or cells: IM-9 human lymphoblast cells; assay: Radioligand receptor binding inhibitory assay using receptor from human lymphoblast cells (IM-9) (125I-BHSP); conditions: human lymphoblast IM-9 cell receptor, 25° C., 30 minutes, pH 7.4
Sequence (P25103 whole entry): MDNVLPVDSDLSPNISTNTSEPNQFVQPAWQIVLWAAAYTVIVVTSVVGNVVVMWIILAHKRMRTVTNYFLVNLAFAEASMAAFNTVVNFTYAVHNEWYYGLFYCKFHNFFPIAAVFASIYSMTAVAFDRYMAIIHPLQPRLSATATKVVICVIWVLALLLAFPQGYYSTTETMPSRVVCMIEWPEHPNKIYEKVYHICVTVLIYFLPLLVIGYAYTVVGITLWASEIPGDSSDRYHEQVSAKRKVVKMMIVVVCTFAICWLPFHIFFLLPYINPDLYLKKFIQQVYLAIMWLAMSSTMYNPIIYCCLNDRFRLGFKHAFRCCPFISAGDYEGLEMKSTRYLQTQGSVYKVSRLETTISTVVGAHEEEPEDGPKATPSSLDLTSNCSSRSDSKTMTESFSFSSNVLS
Reported property: pIC50
To interpret pIC50, take it as minus log10 of a concentration measured in moles per litre.

Input Cc1cc2c(-c3ccccc3)c(NC(=O)NCc3ccccc3Cl)n(C)c(=O)c2cc1C [Example 42] . Output pIC50: 7.12

----------
biological target: substance P receptor from human lymphoblast cells (IM-9) (Homo sapiens); construct: The receptor was prepared from human lymphoblast cells (IM-9); endogenous in cells; host or cells: IM-9 human lymphoblast cells; assay: Radioligand receptor binding inhibitory assay using receptor from human lymphoblast cells (IM-9) (125I-BHSP); conditions: read-out: concentration necessary to cause 50% inhibition [IC50], human lymphoblast IM-9 cell receptor, 25° C., 30 minutes, pH 7.4
Reported property: IC50 (µM)

Look over these answered cases.
>>> reading("CCN(Cc1ccccc1)C(=O)Nc1c(-c2ccccc2)c2cc(C)c(C)cc2c(=O)n1C [Example 53]")
0.066
>>> reading("Cc1cc2c(-c3ccccc3)c(NC(=O)N(C)Cc3ccccc3)n(C)c(=O)c2cc1C [Example 1]")
0.016

A: Cc1cc2c(-c3ccccc3)c(NC(=O)N(C)Cc3ccccc3Cl)n(C)c(=O)c2cc1C [Example 52]
B: COc1ccccc1CN(C)C(=O)Nc1c(-c2ccccc2)c2cc(C)c(C)cc2c(=O)n1C [Example 3]
*Q* Between item A and item B , which reported IC50 is smaller? Please identify the chosen entry by its label.
*A* A
(A: 0.0042 µM, B: 0.023 µM)

----------
target: substance P receptor from rat forebrain (Rattus norvegicus); construct: The receptor was prepared from the brain of Wistar rats (male, 8 weeks old, Charles-River); from tissue; host or cells: forebrain membranes of male Wistar rats; experiment: Radioligand receptor binding inhibitory assay using receptor from rat forebrain (125I-BHSP); set-up: species or system rat (Wistar); conditions: read-out: concentration necessary to cause 50% inhibition [IC50], 25° C., 30 minutes, pH 7.4
Reported property: pIC50
To interpret pIC50, take it as minus log10 of a concentration measured in moles per litre.

Input Cc1cccc(CNC(=O)Nc2c(-c3ccccc3)c3cc(C)c(C)cc3c(=O)n2C)c1 [Example 17] . Output pIC50: 7.74

----------
biological target: substance P receptor from rat forebrain (Rattus norvegicus, UniProt P14600); construct: The receptor was prepared from the brain of Wistar rats (male, 8 weeks old, Charles-River); from tissue; host or cells: forebrain membranes of male Wistar rats; assay: Radioligand receptor binding inhibitory assay using receptor from rat forebrain (125I-BHSP); set-up: species or system rat (Wistar); details: 25° C., 30 minutes, pH 7.4
Reported property: IC50 (µM)

>>> reading("Cc1cc2c(-c3ccccc3)c(NC(=O)NCC3CCCCC3)n(C)c(=O)c2cc1C [Example 15]")
0.076

1: Cc1cc2c(-c3ccccc3)c(NC(=O)NCc3ccco3)n(C)c(=O)c2cc1C [Example 12]
2: Cc1cc2c(-c3ccccc3)c(NC(=O)NCc3ccccn3)n(C)c(=O)c2cc1C [Example 13]
*Q* Select the item with the higher value of IC50 from the options 1 and 2 listed. Please identify the chosen entry by its label.
*A* 1
